# assayedTarget: Mu-type opioid receptor (Homo sapiens, UniProt P35372)
# Sequence (P35372 whole entry): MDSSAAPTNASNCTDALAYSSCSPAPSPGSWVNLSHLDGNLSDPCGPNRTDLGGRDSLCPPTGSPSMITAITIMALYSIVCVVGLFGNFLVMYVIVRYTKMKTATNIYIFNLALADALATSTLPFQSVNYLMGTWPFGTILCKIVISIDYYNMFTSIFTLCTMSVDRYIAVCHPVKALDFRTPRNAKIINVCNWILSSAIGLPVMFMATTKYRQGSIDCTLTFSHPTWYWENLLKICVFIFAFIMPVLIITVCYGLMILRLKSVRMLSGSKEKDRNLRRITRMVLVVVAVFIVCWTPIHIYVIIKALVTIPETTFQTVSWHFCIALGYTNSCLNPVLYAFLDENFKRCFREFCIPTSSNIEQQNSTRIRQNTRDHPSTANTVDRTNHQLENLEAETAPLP
Ki vs 3 nM: less than gives condition met; not less than gives condition not met.

Worked set:
O=C(CCCCCCCCC(=O)Oc1ccc2c(c1)[C@]13CCCCC1[C@H](C2)N(CC1CCC1)CC3)Oc1ccc2c(c1)[C@@]13CCCCC1[C@@H](C2)N(CC1CCC1)CC3 (single isomer, unassigned; (+)) :: condition met
O=C(CCCCCCCCC(=O)Oc1ccc2c(c1)[C@@]13CCCCC1[C@@H](C2)N(CC1CCC1)CC3)Oc1ccccc1 (stereo partly specified) :: condition met
O=C(CCC(=O)Nc1ccc2c(c1)[C@@]13CCCCC1[C@@H](C2)N(CC1CCC1)CC3)Nc1ccc2c(c1)[C@@]13CCCCC1[C@@H](C2)N(CC1CCC1)CC3 (stereo partly specified) :: condition not met
O=C(/C=C/C=C/C(=O)Oc1ccc2c(c1)[C@@]13CCCCC1[C@@H](C2)N(CC1CCC1)CC3)Oc1ccc2c(c1)[C@@]13CCCCC1[C@@H](C2)N(CC1CCC1)CC3 (stereo partly specified) :: condition met

query: Would you kindly verify if Ki of `Nc1ccc2c(c1)[C@@]13CCCC[C@H]1[C@@H](C2)N(CC1CCC1)CC3` is strictly less than 3 nM?
result: condition not met

query: Does the reported Ki of O=C(CCC(=O)Oc1ccc2c(c1)[C@@]13CCCCC1[C@@H](C2)N(CC1CCC1)CC3)Oc1ccc2c(c1)[C@@]13CCCCC1[C@@H](C2)N(CC1CCC1)CC3 (stereo partly specified) stay below 3 nM?
result: condition met

From: ChEMBL document CHEMBL1148605
